- procedure-text: Average animal weight in MCF-7 mouse xenograft model
- Assay type: in vivo
- condition-label: nude mice with MCF-7 xenograft, i.p., day 18
Below, each entry is listed alongside its reported Average Weight of Animals in Grams after Days 18.
Note: unit Grams is implicit; provide only the numeric part.

INSERT INTO results (compound, numeric_readout) VALUES
  ('O=C(Cn1cnc2scc(-c3cccs3)c2c1=O)NN1C(=O)CSC1c1ccc(Cl)cc1 (stereo not shown) [Compound 9]', 23.6);

input: Endpoint output: Average Weight of Animals in Grams after Days 18 of NNC(=O)Cn1cnc2scc(-c3cccs3)c2c1=O [Compound 4] . Value?
output: 23.6

input: Endpoint output: Average Weight of Animals in Grams after Days 18 of O=C(Cn1cnc2scc(-c3cccs3)c2c1=O)NN=Cc1ccc(Cl)cc1 [Compound 7] . Value?
output: 27.0
